The origin of these recorded values is ChEMBL document CHEMBL1201862.

- System: LOX IMVI
- procedure.summary: NCI tumour cell line growth inhibition, 48 h
Activity calls are given as the source filed them. Rule as the data show it: active = GI50 up to about 1.1 µM and inactive = higher.
Outcome codes: t for active, f for inactive

{"molecule": "O=C1O/C(=C\\c2ccc(O)cc2)C(c2ccc(O)c(Cl)c2)=C1Br", "label.value": "f"}
{"molecule": "COc1ccc(-c2cc(O)c3cc4c(cc3n2)OCO4)c(OC)c1", "label.value": "f"}
{"molecule": "COc1cc([C@@H]2c3cc4c(cc3[C@@H](NCCCN(C)C)[C@H]3COC(=O)[C@H]23)OCO4)cc(OC)c1O", "label.value": "t"}
{"molecule": "CC1(O)C=CC(=O)C=C1", "label.value": "f"}
{"molecule": "CC(=O)C1(O)Cc2c(O)c3c(c(O)c2C(OC2CC(N)C(O)C(C)O2)C1)C(=O)c1ccccc1C3=O (stereo not given)", "label.value": "t"}

---

# Lookup of reported GI50 keyed by entry
- Tested on: HCT-116
- procedure.summary: NCI tumour cell line growth inhibition, 48 h
The source made the active and inactive calls. No stated cut-off is given here; in the data, active = GI50 up to about 1.1 µM and inactive = higher.

{"compound": "CC1(O)C=CC(=O)C=C1", "assay.target": "HCT-116", "GI50": "60.1 µM (inactive)"}
{"compound": "O=C1/C(=C/c2ccc(Cl)cc2)N=C(c2ccccc2)N1c1nc2ccc(Sc3ccccc3)cc2[nH]1", "assay.target": "HCT-116", "GI50": "24.2 µM (inactive)"}
{"compound": "CC(=O)NC1C(OCc2ccccc2)OC(COC(=O)CCCCCCCCCCNC(=O)CCNc2ccc([N+](=O)[O-])c3[nH]c4ccc(O)cc4c(=O)c23)C(O)C1OC(C)C(=O)N[C@H](C(=O)N[C@H](CCC(=O)O)C(N)=O)C(C)C (stereo not given in full)", "assay.target": "HCT-116", "GI50": "53.7 µM (inactive)"}
{"compound": "CCc1nc(Cl)nc(Cl)c1Cl", "assay.target": "HCT-116", "GI50": "0.948 µM (active)"}
{"compound": "N#C[C@H]1Nc2ccccc2[C@@H](O)C1O (stereo not given in full)", "assay.target": "HCT-116", "GI50": "> 100 µM (inactive)"}
{"compound": "N=C(N)SCc1nc(-c2ccc(Cl)cc2)no1", "assay.target": "HCT-116", "GI50": "14.6 µM (inactive)"}
{"compound": "O=C1N/C(=N/N=C/C(O)C(O)C(O)C(O)CO)N/C1=C\\c1cccs1 (stereo not given)", "assay.target": "HCT-116", "GI50": "> 100 µM (inactive)"}
{"compound": "O=C1/C(=C/c2ccc(Cl)cc2)Oc2cc(O)ccc21 [6-HYDROXY-4'-CHLORO AURONE]", "assay.target": "HCT-116", "GI50": "30.5 µM (inactive)"}
{"compound": "COC(=O)c1c[nH]c2nc(N3CCOCC3)nn2c1=O", "assay.target": "HCT-116", "GI50": "> 100 µM (inactive)"}
{"compound": "Cc1ccc(S(=O)(=O)N/N=C(/c2nc3ccc([N+](=O)[O-])cc3nc2O)C(O)c2ccc(C(O)/C(=N\\NS(=O)(=O)c3ccc(C)cc3)c3nc4ccc([N+](=O)[O-])cc4nc3O)cc2)cc1 (stereo not given)", "assay.target": "HCT-116", "GI50": "54.2 µM (inactive)"}
{"compound": "COc1cc(C2C(C(=O)Nc3ccccc3C)=C(C)NC(C)=C2C(=O)Nc2ccccc2C)ccc1O", "assay.target": "HCT-116", "GI50": "> 100 µM (inactive)"}
{"compound": "CC(C)OP(=O)(c1ccccc1)c1ccc2c(c1)OCCOCCOCCOCCO2 (stereo not given)", "assay.target": "HCT-116", "GI50": "> 100 µM (inactive)"}
{"compound": "O=C1NC(=O)C(c2c[nH]c3ccccc23)=C1c1cnc[nH]1", "assay.target": "HCT-116", "GI50": "41.8 µM (inactive)"}
{"compound": "O=C1NC2CCCCCC2C12CCCCC2 (stereo not given)", "assay.target": "HCT-116", "GI50": "> 100 µM (inactive)"}
{"compound": "CC(C)=CC(O)C(C(O)CCC1(C)OCCO1)S(=O)(=O)c1ccccc1 (stereo not given)", "assay.target": "HCT-116", "GI50": "> 100 µM (inactive)"}
{"compound": "N#CC1C(=O)NC(=O)C(C#N)C1c1ccc(Cl)c(Cl)c1 (stereo not given)", "assay.target": "HCT-116", "GI50": "13.9 µM (inactive)"}
{"compound": "COc1cccc(C(=O)C#Cc2cnc(OC)nc2OC)c1", "assay.target": "HCT-116", "GI50": "3.18 µM (inactive)"}
{"compound": "COc1cc2c(c(OC)c1OC)-c1ccc(SC)c(=O)cc1[C@@H](NC(=O)c1ccc(F)cc1)CC2", "assay.target": "HCT-116", "GI50": "0.0416 µM (active)"}
{"compound": "C/C(=N/NC(=O)c1ccccc1S(N)(=O)=O)C(CN1CCCCC1)C(C1=C(O)C2C=CC=CC2OC1=O)c1ccccc1 (stereo not given)", "assay.target": "HCT-116", "GI50": "> 100 µM (inactive)"}
{"compound": "O=c1c2ccccc2nc(Cc2nc(-c3ccc(Cl)cc3)cs2)n1-c1ccc(Cl)cc1", "assay.target": "HCT-116", "GI50": "37.2 µM (inactive)"}
{"compound": "COC(=O)C1=C(O)c2cc3c(cc2[C@H](c2cc(OC)c(OC)c(OC)c2)C1C(=O)OC)OCO3 (stereo not given in full)", "assay.target": "HCT-116", "GI50": "34.7 µM (inactive)"}
{"compound": "N/N=C1/C(=O)N(c2ccc(Cl)cc2)C(=O)C(=O)C1c1nc2ccccc2s1 (stereo not given)", "assay.target": "HCT-116", "GI50": "> 100 µM (inactive)"}
{"compound": "COC(=O)c1s/c(=N\\C(=S)N(C)C)n(-c2ccccc2)c1C(=O)OC", "assay.target": "HCT-116", "GI50": "> 100 µM (inactive)"}
{"compound": "COc1ccc(/C=C(\\C2=NC(=O)CS2)c2nc3ccccc3[nH]2)cc1", "assay.target": "HCT-116", "GI50": "85.1 µM (inactive)"}
{"compound": "O=[N+]([O-])c1ccc(NS(=O)(=O)C(F)(F)F)cc1", "assay.target": "HCT-116", "GI50": "> 100 µM (inactive)"}
{"compound": "Clc1ccc(OCc2nnc3n2N=C(c2ccccc2)CS3)cc1", "assay.target": "HCT-116", "GI50": "11.2 µM (inactive)"}
{"compound": "S=C1/C(=N/c2ccccc2)N(C2CCCCC2)/C(=N\\C2CCCCC2)N1c1ccccc1", "assay.target": "HCT-116", "GI50": "68.9 µM (inactive)"}
{"compound": "CSCC[C@H]1C(=O)N=C(N)N1C(=O)OCc1ccccc1", "assay.target": "HCT-116", "GI50": "17.6 µM (inactive)"}
{"compound": "CC1=C(C(=O)NCc2ccccc2)C(c2ccc(Cl)c(Cl)c2)C(C(=O)NCc2ccccc2)=C(C)N1", "assay.target": "HCT-116", "GI50": "> 100 µM (inactive)"}
{"compound": "CC1CCCC(C(O)CC2CC(=O)N(c3ccccc3)C(=O)C2)C1=O (stereo not given)", "assay.target": "HCT-116", "GI50": "> 100 µM (inactive)"}
{"compound": "O=C(c1cccc2ccccc12)C1S(=O)(=O)OCCOS1(=O)=O", "assay.target": "HCT-116", "GI50": "> 100 µM (inactive)"}
{"compound": "O=C(O)c1cc2c(cc1CC(Cc1ccc3c(c1)CCC3)C(=O)O)CCC2 (stereo not given)", "assay.target": "HCT-116", "GI50": "> 100 µM (inactive)"}
{"compound": "C=C1C(=O)OC2C1CC[C@H](C)C1(O)C(O)CC(=O)[C@@]21C (stereo not given in full)", "assay.target": "HCT-116", "GI50": "15 µM (inactive)"}
{"compound": "O=C1c2cccc3cccc(c23)C(=O)N1O", "assay.target": "HCT-116", "GI50": "27.4 µM (inactive)"}
{"compound": "COc1c(O)c2c3c(c(C)cc(O)c3c1O)C(=O)C(O)(C(C)(C)C(C)=O)C2=O (stereo not given)", "assay.target": "HCT-116", "GI50": "> 100 µM (inactive)"}
{"compound": "Cc1cccc(C)c1NC(=O)CCC(=O)/N=C(\\N)NC#N", "assay.target": "HCT-116", "GI50": "> 100 µM (inactive)"}
{"compound": "O=[N+]([O-])c1ccc(Cl)cc1N/N=C/c1cccc2cccnc12", "assay.target": "HCT-116", "GI50": "54 µM (inactive)"}
{"compound": "O=C(O)c1ccccc1CC1Cc2ccc3c(c2C1=O)CCC3 (stereo not given)", "assay.target": "HCT-116", "GI50": "> 100 µM (inactive)"}
{"compound": "Cc1ccc2nc(NC(=O)/C(Cc3nc4ccc(Cl)cc4nc3O)=N\\NC(C)(C)C)sc2c1", "assay.target": "HCT-116", "GI50": "> 100 µM (inactive)"}
{"compound": "O=C(NNc1ccc([N+](=O)[O-])cc1)C1OC(CO)C(O)C1O (stereo not given)", "assay.target": "HCT-116", "GI50": "> 100 µM (inactive)"}
